Ref: patent US20060239915A1

Target: MSRA on THP-1 cells (Homo sapiens)
Construct: Cells became adherent and expressed MSRA; endogenous in cells; host or cells: THP-1 (ECACC), differentiated with PMA
Assay: Cell competition assay with 125I-imaging agent 2, THP-1 cells
Settings: competition for binding of 125I imaging agent 2, THP-1 cells, n=3; read-out: Mean IC50 (two site kinetics, first value)
pIC50: −log10 of the molar value.

MOLECULE	pIC50
O=C(Nc1ccc(I)cc1)c1cc(Br)ccc1NS(=O)(=O)c1ccc(Cl)cc1 [non-radioactive imaging agent 2]	7.10

----------
Target: MSRA on THP-1 cells (Homo sapiens)
Construct: Cells became adherent and expressed MSRA; endogenous in cells; host or cells: THP-1 (ECACC), differentiated with PMA
Sequence (P21757 1-451): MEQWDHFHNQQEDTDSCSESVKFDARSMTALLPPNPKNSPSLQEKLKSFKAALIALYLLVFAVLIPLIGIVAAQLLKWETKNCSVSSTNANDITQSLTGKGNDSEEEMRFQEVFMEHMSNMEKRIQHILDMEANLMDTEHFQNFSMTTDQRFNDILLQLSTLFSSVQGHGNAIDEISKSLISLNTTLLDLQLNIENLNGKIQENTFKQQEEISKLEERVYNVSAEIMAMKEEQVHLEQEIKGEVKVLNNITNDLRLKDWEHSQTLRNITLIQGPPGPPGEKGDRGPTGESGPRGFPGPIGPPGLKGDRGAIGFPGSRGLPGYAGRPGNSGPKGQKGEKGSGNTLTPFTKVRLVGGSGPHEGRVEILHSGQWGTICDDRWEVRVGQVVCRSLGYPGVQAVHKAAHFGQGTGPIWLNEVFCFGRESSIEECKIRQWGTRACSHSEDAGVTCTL
Assay: Cell competition assay with 125I-imaging agent 2, THP-1 cells
Settings: competition for binding of 125I imaging agent 2, THP-1 cells, n=3; read-out: Mean IC50 (two site kinetics, second value)
pIC50: −log10 of the molar value.

SMILES_RECORD	pIC50
O=C(Nc1ccc(I)cc1)c1cc(Br)ccc1NS(=O)(=O)c1ccc(Cl)cc1	4.84
